Experiment: chemical genetic growth profiling, strain panel (AID 1159580);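 also: tested at 20 µM; growth read once vehicle control cultures reached saturation at 30 °C; 1 = growth at the plate median or of vehicle wells; lower values mean less growth of the strain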
Conditions: S. cerevisiae deletion strains, growth OD, locus YOR061W, strain CKA2, stronger effect = lower value
Among all 5,500 compounds or so, about 2,000 (36%) were called active. About 18% were inconclusive and are not listed. Some of the results follow.
quantity: normalized growth

- CO[C@H]1[C@H](O)[C@H](O[C@H]2CC[C@]3(C)C4CC[C@]5(C)C(C6=CC(=O)OC6)CC[C@]5(O)C4CC[C@@H]3C2)O[C@@H](C)[C@@H]1O (some centres not stated): 1.01
- Cc1cc(Cl)ccc1NNC(=O)c1ccno1: 0.946
- Cc1cc(NNC(=O)c2ccccc2Cl)nc2c1c(C)nn2C: 0.94
- Cc1cc(C(=O)NNc2ccc(F)cc2F)no1: 0.822
- Cc1nnsc1C(=O)Nc1cc(C(F)(F)F)cc(C(F)(F)F)c1: 0.996
- Cc1nnsc1C(=O)NNc1c(Cl)cccc1Cl: 0.927
- CSC1=NNC(c2nn(C)cc2Cl)S1 (configuration not stated): 0.118

---

Experiment: chemical genetic growth profiling, strain panel (AID 1159580)
Conditions: S. cerevisiae deletion strains, growth OD, locus YLR027C, strain aat2
Screen size: about 5,500 compounds; about 2,000 (36%) were called active. Inconclusive results (about 18%) are left out. Cut-off read from the data, not from the text of the source: active = normalized growth mostly below about 0.91 (no sharp cut-off); inconclusive = no clear call, values can overlap the other calls; inactive = mostly above about 0.92. The list shows a part of the results.
Outcome codes: active, inactive

* CN1CCC(=C2c3ccccc3CCc3sccc32)CC1 | inactive
* NC(=O)C(c1ccccc1)(c1ccccc1)C1CCN(CCc2ccc3c(c2)CCO3)C1 (stereo unspecified) | inactive
* COc1ccc2c(C)cc(=O)oc2c1 | inactive
* CCCCCCCCCCCCCCCC[N+](C)(C)C | active
* COc1ccc2c(c1)OCc1c-2oc2cc(OC)ccc12 | active
* Oc1cc(Cl)ccc1Oc1ccc(Cl)cc1Cl | active
* Cc1cccc(C)c1OCC(C)N (stereo unspecified) | inactive
* CCCCNc1cc(C(=O)O)cc(S(N)(=O)=O)c1Oc1ccccc1 | inactive
* O=C1C=CC(=C(c2ccc(O)cc2)c2ccc(O)cc2)C=C1 | inactive
* COc1cc(/C=C/C(=O)/C=C(O)/C=C/c2ccc(O)c(OC)c2)ccc1O | active
* CCC(=O)O[C@H]1[C@H](O[C@@H]2[C@@H](C)[C@H](O[C@H]3C[C@@](C)(OC)[C@@H](O)[C@H](C)O3)[C@@H](C)C(=O)O[C@H](CC)[C@@](C)(O)[C@H](O)[C@@H](C)C(=O)[C@H](C)C[C@@]2(C)O)O[C@H](C)C[C@@H]1N(C)C | active

---

Assay: chemical genetic growth profiling, strain panel (AID 1159580);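 also: tested at 20 µM; growth read once vehicle control cultures reached saturation at 30 °C; 1 = growth at the plate median or of vehicle wells; lower values mean less growth of the strain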
Details: S. cerevisiae deletion strains, growth OD, locus YBR023C, strain chs3
The whole screen tested about 5,500 compounds, of which about 2,000 (36%) were called active. Another 18% or so got no clear call; they are omitted. Rule as the data show it: active = normalized growth mostly below about 0.91 (no sharp cut-off); inconclusive = no clear call, values can overlap the other calls; inactive = mostly above about 0.92. The list shows a part of the results.
Outcome codes: active, inactive

• CC(=O)[C@H]1CCC2C3CCC4=CC(=O)CC[C@]4(C)C3CC[C@@]21C (stereo not given in full) = inactive
• COP(=O)(OC)OC=C(Cl)Cl = inactive
• CC(C)(O)[C@@H]1[C@H]2OC(=O)[C@@H]1[C@]1(O)C[C@H]3O[C@]34C(=O)O[C@H]2[C@]14C = inactive
• COc1ccc2c(c1OC)C(=O)O[C@@H]2[C@H]1c2cc3c(cc2CCN1C)OCO3 = inactive
• CO[C@H]1[C@H](O)[C@H](O[C@H]2CC[C@]3(C)C4CC[C@]5(C)C(C6=CC(=O)OC6)CC[C@]5(O)C4CC[C@@H]3C2)O[C@@H](C)[C@@H]1O (stereo not given in full) = inactive
• CCOC(=O)[C@H](CCc1ccccc1)N[C@H]1CCc2ccccc2N(CC(=O)O)C1=O = inactive
• COc1cc2c(cc1OC)[C@@H]1C(=O)c3ccc(OC)c(CC=C(C)C)c3O[C@@H]1CO2 = inactive
• CN1CCC(=C2c3ccccc3Sc3ccccc32)CC1 = inactive
• C[C@]12CCC(=O)C=C1CCC1C2CC[C@@]2(C)C1CC[C@@H]2O (stereo not given in full) = inactive
• COc1ccc2c(c1)O[C@@H]1COc3cc(OC)c(OC)cc3[C@@H]1C2=O = active

---

Assay: chemical genetic growth profiling, strain panel (AID 1159580);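 also: tested at 20 µM; growth read once vehicle control cultures reached saturation at 30 °C; 1 = growth at the plate median or of vehicle wells; lower values mean less growth of the strain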
Conditions: S. cerevisiae deletion strains, growth OD, locus YKR026C, strain gcn3, stronger effect = lower value
In all, about 5,500 compounds went through this assay and about 2,000 (36%) were called active. Another 18% or so got no clear call; they are omitted. The list shows a part of the results.
Below, each entry is listed alongside its reported normalized growth.
quantity: normalized growth

* Oc1cc(Cl)ccc1Oc1ccc(Cl)cc1Cl | 0.0592
* COc1cc(/C=C/C(=O)/C=C(O)/C=C/c2ccc(O)c(OC)c2)ccc1O | 0.229
* CO[C@H]1[C@H](O)[C@H](O[C@H]2CC[C@]3(C)C4CC[C@]5(C)C(C6=CC(=O)OC6)CC[C@]5(O)C4CC[C@@H]3C2)O[C@@H](C)[C@@H]1O (stereo partly drawn) | 0.995
* ClC1=C(Cl)C2(Cl)C3C(Cl)C=CC3C1(Cl)C2(Cl)Cl (stereo not drawn) | 1.01
* CCOC(=O)c1c(C)cc(O)c(C=O)c1O | 0.823
* COc1cc(O)c(C(=O)/C=C/c2ccc(OC)c(O)c2)c(OC)c1 | 0.992
* OCCN1C[C@@H](O)[C@@H](O)C(O)C1CO (stereo partly drawn) | 1.02
* CCOC(=O)c1c(C)c(Cl)c(O)c(Cl)c1O | 0.697
* CN1CCCN=C1COC(=O)C(O)(c1ccccc1)C1CCCCC1 (stereo not drawn) | 0.997
* CC1=C(CC(=O)O)c2cc(F)ccc2/C1=C\c1ccc(S(C)=O)cc1 (stereo not drawn) | 1.01
* CC(=O)OC(C)(C)[C@@H]1Cc2cc3ccc(=O)oc3cc2O1 | 0.957
* CNC(C)[C@H](O)c1ccccc1 (stereo partly drawn) | 0.995
* COc1ccc2c(c1OC)C(=O)O[C@@H]2[C@H]1c2cc3c(cc2CCN1C)OCO3 | 0.998
* COc1ccc2c(c1)OCc1c-2oc2cc(OC)ccc12 | 0.988
* COc1ccc2c(c1OC)C(=O)O[C@H]2[C@H]1c2cc3c(cc2CCN1C)OCO3 | 1.01
* ClC1=C(Cl)C2(Cl)C3C4C=CC(C4)C3C1(Cl)C2(Cl)Cl (stereo not drawn) | 0.997
* Cc1cc(O)c(C)c(O)c1C(=O)O | 0.983
* COc1ccc2c(C)cc(=O)oc2c1 | 0.991
* N=c1ccn2c(n1)O[C@@H]1C2O[C@H](CO)[C@H]1O (stereo partly drawn) | 0.989
* CC(NCCc1ccc(O)cc1)C(O)c1ccc(O)cc1 (stereo not drawn) | 0.985
* CCN(CC)CCNC(=O)c1cc(Br)c(N)cc1OC | 0.971
* CN(C)c1ccc(C(=C2C=CC(=[N+](C)C)C=C2)c2ccc(N(C)C)cc2)cc1 | 0.573
* CCOC(=O)C(Cc1ccc(O)cc1)NC(C)=O (stereo not drawn) | 1

---

Below, each entry is listed alongside its reported normalized growth.
Assay: chemical genetic growth profiling, strain panel (AID 1159580);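 also: tested at 20 µM; growth read once vehicle control cultures reached saturation at 30 °C; 1 = growth at the plate median or of vehicle wells; lower values mean less growth of the strain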
Details: S. cerevisiae deletion strains, growth OD, locus YLL001W, strain dnm1, stronger effect = lower value
Screen size: about 5,500 compounds; about 2,000 (36%) were called active. Not shown: some 18% with an inconclusive outcome. This is one part of the list.
quantity: normalized growth

• CC(N)CCCC(C)(C)O (centres undefined) = 0.974
• CN1CCC(=C2c3ccccc3CCc3sccc32)CC1 = 0.987
• CN(C)C(=S)SSC(=S)N(C)C = 0.0595
• CCCCNc1cc(C(=O)O)cc(S(N)(=O)=O)c1Oc1ccccc1 = 1
• CN(C)c1ccc(C(=C2C=CC(=[N+](C)C)C=C2)c2ccc(N(C)C)cc2)cc1 = 0.605
• c1cncc(C2CCCCN2)c1 (centres undefined) = 0.993
• CC(NCCc1ccc(O)cc1)C(O)c1ccc(O)cc1 (centres undefined) = 0.981
• CC(C[N+](C)(C)C)OC(N)=O (centres undefined) = 1.03
• COc1ccc2c(C)cc(=O)oc2c1 = 0.986
• O=C(O)C1(O)C[C@@H](O)C(O)[C@H](O)C1 (some centres undefined) = 0.962
• CC(=O)OCC[N+](C)(C)C = 1.02
• CCN(CC)CCCC(C)Nc1ccnc2cc(Cl)ccc12 (centres undefined) = 1.02
• CCN(CC)CCCC(C)Nc1c2ccc(Cl)cc2nc2ccc(OC)cc12 (centres undefined) = 0.902
• Cc1cccc(C)c1OCC(C)N (centres undefined) = 1.02
• CC1=C(C(C)O)C2=NC1C=c1[nH]c(c(C)c1C(C)O)=Cc1[nH]c(c(CCC(=O)O)c1C)C=c1[nH]c(c(C)c1CCC(=O)O)=C2 (centres undefined) = 0.988
• CN1CCC(=C2c3ccccc3Sc3ccccc32)CC1 = 1.03
• CCCCCCCCNC(C)C(O)c1ccc(SC(C)C)cc1 (centres undefined) = 0.0576
• C[C@]12CCC(=O)C=C1CCC1C2CC[C@@]2(C)C1CC[C@@H]2O (some centres undefined) = 1
• COc1ccc2c(c1OC)C(=O)O[C@@H]2[C@H]1c2cc3c(cc2CCN1C)OCO3 = 0.994
• CC(=O)O[C@@H]1C[C@@]2(C)C(CC[C@@H]2C(C)=O)C2CCC3=CC(=O)CC[C@]3(C)C21 (some centres undefined) = 1.02
• NC(=O)c1ccc[n+]([C@@H]2O[C@H](COP(=O)([O-])OP(=O)(O)OC[C@H]3O[C@@H](n4cnc5c(N)ncnc54)[C@H](O)[C@@H]3O)[C@@H](O)[C@H]2O)c1 = 1.03
• OCCN1C[C@@H](O)[C@@H](O)C(O)C1CO (some centres undefined) = 1.02
• C=C1C2CC[C@H]3[C@]4(C)C[C@H](OC5OC(CO)C(OS(=O)(=O)O)C(OS(=O)(=O)O)C5OC(=O)CC(C)C)C[C@@H](C(=O)O)[C@H]4CC[C@]3(C2)[C@H]1O (some centres undefined) = 1.03
• CN[C@@H](C)[C@@H](O)c1ccccc1 = 1.01
